Test system: MOLT-3 cell line
Test: cells
Assay type: cell-based, human
Details: Homo sapiens, MOLT-3
The entries below are paired with their reported IC50.

| Compound String | Target Entity | Operator Symbol | IC50 (µM) |
| --- | --- | --- | --- |
| CC(=O)O[C@@]12CO[C@@H]1C[C@H](O)[C@@]1(C)C(=O)[C@H](O)C3=C(C)[C@@H](OC(=O)[C@H](O)[C@@H](NC(=O)OC(C)(C)C)c4ccccc4)C[C@@](O)([C@@H](OC(=O)c4ccccc4)[C@H]21)C3(C)C | MOLT-3 cell line | < | 0.01 |
| CC(=O)O[C@H]1C(=O)[C@@]2(C)[C@H]([C@H](OC(=O)c3ccccc3)[C@]3(O)C[C@H](OC(=O)[C@H](O)[C@@H](NC(=O)c4ccccc4)c4ccccc4)C(C)=C1C3(C)C)[C@]1(OC(C)=O)CO[C@@H]1C[C@@H]2O | MOLT-3 cell line | = | 10 |
| CC[C@]1(O)C[C@@H]2CN(CCc3c([nH]c4ccccc34)[C@@](C(=O)OC)(c3cc4c(cc3OC)N(C)[C@H]3[C@@](O)(C(=O)OC)[C@H](OC(C)=O)[C@]5(CC)C=CCN6CC[C@]43[C@@H]65)C2)C1 | MOLT-3 cell line | = | 0.851 |
| CC[C@]1(O)C[C@H]2CN(CCc3c([nH]c4ccccc34)[C@@](C(=O)OC)(c3cc4c(cc3OC)N(C=O)[C@H]3[C@@](O)(C(=O)OC)[C@H](OC(C)=O)[C@]5(CC)C=CCN6CC[C@]43[C@@H]65)C2)C1 | MOLT-3 cell line | = | 10 |
